subject-of-test: RORγ ligand-binding domain fused to Gal4 (Homo sapiens, UniProt P51449)
Construct: Gal4 (galactose-responsive transcription factor); expressed in transfected cells; host or cells: HEK293
Sequence (P51449 269-508 limits assumed): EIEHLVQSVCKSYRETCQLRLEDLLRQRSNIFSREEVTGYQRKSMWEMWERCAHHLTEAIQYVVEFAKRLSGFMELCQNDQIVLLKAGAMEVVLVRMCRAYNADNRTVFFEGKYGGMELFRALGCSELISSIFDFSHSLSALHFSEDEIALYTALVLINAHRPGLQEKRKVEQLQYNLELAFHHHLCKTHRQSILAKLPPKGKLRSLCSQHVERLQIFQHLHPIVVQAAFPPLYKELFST
assay-method-text: RORγ Reporter Assay (Gal4)
Type: cell-based
assay-context: compounds of the present disclosure; source: Table 2 herein; read-out: Gal4 assay EC50
observable: EC50

>>> result("NC(=O)CN1CCC(CO)(CNc2ncnc(N(Cc3ccc(C(F)(F)F)cc3)C3CC3)c2F)C(O)C1 (single isomer, unassigned) [Example C4-1-2]")
"< 100 nM"
>>> result("NC(=O)CN1CC[C@H](CNc2ncnc(N(Cc3ccc(C(F)(F)F)cc3)C3CC3)c2F)[C@@H](F)C1 (single isomer, unassigned) [Example A7-05-1]")
"< 100 nM"
>>> result("NC(=O)CN1CC[C@@H](CNc2ncnc(N(Cc3ccc(C(F)(F)F)cc3)C3CC3)c2F)[C@H](O)C1 (single isomer, unassigned) [Example A7-01-1]")
"< 100 nM"

* * *

subject-of-test: RORγ ligand-binding domain fused to Gal4 (Homo sapiens, UniProt P51449)
Construct: Gal4 (galactose-responsive transcription factor); expressed in transfected cells; host or cells: HEK293
assay-method-text: RORγ Reporter Assay (Gal4)
Format: cell-based
assay-context: HEK293 cells co-transfected with RORγ LBD-Gal4 and luciferase reporter; 24 h incubation; absolute EC50; read-out: EC50
Collected EC50 values appear next to each entry.
observable: EC50

>>> result("N#Cc1cccc(CN(c2ncnc(NCC3CCN(CC(N)=O)CC3)c2F)C2CC2)c1 [Example A7-36]")
"860 nM"
>>> result("NC(=O)CN1CC[C@H](CNc2ncnc(N(Cc3cnc(C(F)(F)F)nc3)C3CCC3)c2F)[C@@H](O)C1 (racemic) [Example A7-18]")
"130 nM"
>>> result("NC(=O)CN1CC[C@H](CNc2ncnc(N(Cc3cnc(C(F)(F)F)nc3)C3CCC3)c2F)[C@@H](O)C1 (single isomer, unassigned) [Example A7-18-1]")
"140 nM"
>>> result("NC(=O)CN1CCC(CNc2ncnc(N(Cc3ccc(C(F)(F)F)cn3)C3CC3)c2F)CC1 [Example A7-35]")
"310 nM"
>>> result("Cn1cnnc1C1(CNc2ncnc(N(Cc3ccc(C(F)(F)F)cc3)C3CC3)c2F)CCN(CC(N)=O)CC1 [Example A7-83]")
"> 1000 nM"
>>> result("NC(=O)CN1CCC(CNc2ncnc(N(Cc3ccc(C(F)(F)F)cc3)C3CC3)c2F)C(C(F)(F)F)C1 (single isomer, unassigned) [Example A7-07-1]")
"49 nM"
>>> result("CC(F)(F)c1ccc(CN(c2ncnc(NC[C@@H]3CCN(CC(N)=O)C[C@H]3O)c2F)C2CC2)cn1 (single isomer, unassigned) [Example A7-29-1]")
"35 nM"
